System: 786-0 renal
assay_notes: NCI-60 one-dose screen, 48 h (100 = growth as untreated, 0 = no growth, -100 = all killed)
details: 10 µM
Compounds without any hit were thinned out: in the full panel of roughly 83,000, 20% have a hit.
Heads up, the class ranges for growth are group A = under 50%, group B = from 50% up to 70%, group C = 70% and over

molecule: CC(C)=CCc1ccc(O)c(=O)cc1C(C)C
tgt: 786-0 renal
cat: group A

molecule: c1ccc(CO[C@H]2CO[C@H]3[C@@H]2OC[C@H]3OCc2ccccc2)cc1
tgt: 786-0 renal
cat: group C

molecule: C[C@]12CC[C@@H]3c4ccc(O)cc4C[C@@H](O)[C@H]3[C@@H]1CC[C@@H]2O
tgt: 786-0 renal
cat: group C

molecule: COc1ccc(-c2nc(-c3nc4ccc(OC)cc4[nH]3)cc3c2[nH]c2ccccc23)cc1
tgt: 786-0 renal
cat: group A

molecule: N#Cc1cc(-c2cc3ccccc3o2)oc1N
tgt: 786-0 renal
cat: group A

molecule: COc1ccc2nc3cc(Cl)ccc3c(NCCNCC(C)O)c2c1 (stereo not given)
tgt: 786-0 renal
cat: group A

molecule: O=C(CNC(=O)OCc1ccccc1)NCC(=O)Oc1ccc([N+](=O)[O-])cc1
tgt: 786-0 renal
cat: group C

molecule: C#Cc1ccc(-n2c(/C=C/c3ccc4ccccc4c3)nc3ncccc3c2=O)cc1
tgt: 786-0 renal
cat: group B

molecule: O=C(c1cccs1)c1ccccc1Cc1ccccc1
tgt: 786-0 renal
cat: group C

molecule: COc1cccc(C(=O)Nc2ccc(CN3CCc4nc5cc(OC)c(OC)cc5cc43)cc2)c1
tgt: 786-0 renal
cat: group B

molecule: O=C(Nc1cccc(-n2cc(-c3ccncc3)c(-c3ccc(O)c(Cl)c3)n2)c1)Nc1cccc(C(F)(F)F)c1
tgt: 786-0 renal
cat: group A

molecule: Nc1c(C(=O)Nc2ccccc2)sc2nc3c(cc12)C(O)CCC3 (stereo not given)
tgt: 786-0 renal
cat: group B

molecule: CNc1ncc(-c2ccc(C(F)(F)F)cc2)c(NC2CCCCCC2)n1
tgt: 786-0 renal
cat: group C

molecule: C/C(=N\Nc1nc2ccccc2s1)c1ccncn1
tgt: 786-0 renal
cat: group A

molecule: O=C(Nc1ccncc1)C(=O)c1cn(S(=O)(=O)c2cc(Cl)cc(Cl)c2)c2ccccc12
tgt: 786-0 renal
cat: group C

molecule: C#Cc1ccc(-n2c(/C=C/c3ccc(O)c(OC)c3)nc3ncccc3c2=O)cc1
tgt: 786-0 renal
cat: group C
